This collection of values is drawn from paper PMC7140114.

system: MDA-MB-468 cells; experiment: In vitro cytotoxicity (CellTiter-Glo, 7 days), MDA-MB-468; format: cell-based, human; conditions: Homo sapiens, 168 h, MDA-MB-468, HER2−
Numbered stars: 1 amine (or outer) side, 2 acyl side, 3 side chain; on linkers, the order of the positions; unused ones are H or OH. Square brackets hold non-standard residues; d marks the D form. Peptide text beside a SMILES is read from it. * marks the point of attachment. Dolaproine = CO[C@@H]([C@@H]1CCCN1)[C@@H](C)C(=O)O; X1 = N[C@@H](CSC1CC(=O)N(CCCCCC(=O)*)C1=O)C(=O)O; Dil = CC[C@H](C)[C@H](NC)[C@@H](CC(=O)O)OC; PABC = O=C(OCc1ccc(N[*:1])cc1)[*:2]; X2 = C[C@@H](N*)[C@@H](O)c1ccccc1; NMeV = CN[C@H](C(=O)O)C(C)C
measured.metric: IC50 (nM)
Numeric only. Scale: nM

Request: Form field: reported IC50 of CC[C@H](C)[C@@H]([C@@H](CC(=O)N1CCC[C@H]1[C@H](OC)[C@@H](C)C(=O)N[C@H](C)[C@@H](O)c1ccccc1)OC)N(C)C(=O)[C@@H](NC(=O)[C@H](C(C)C)N(C)C(=O)OCc1ccc(NC(=O)CCCCCN2C(=O)CC(SC[C@H](N)C(=O)O)C2=O)cc1)C(C)C (some centres unmarked) [Cys-15] ({X1-PABC}-[NMeV]V[Dil][Dolaproine]-X2)
Result: 11.1

Request: // lookup IC50 for CCC(C)C(C(CC(=O)N1CCCC1C(OC)C(C)C(=O)NC(C)C(O)c1ccccc1)OC)N(C)C(=O)C(NC(=O)C(NC)C(C)C)C(C)C (centres unmarked) [MMAE, Monomethyl auristatin E]
Result: 0.17
